Target: T1, CLDN6 endogenously expressed by human cancer cell lines (ARK2, OVCA429) (human, UniProt P56747 1-220)
T1 construct: Untagged endogenous protein; also called Endogenous CLDN6+
T1 sequence: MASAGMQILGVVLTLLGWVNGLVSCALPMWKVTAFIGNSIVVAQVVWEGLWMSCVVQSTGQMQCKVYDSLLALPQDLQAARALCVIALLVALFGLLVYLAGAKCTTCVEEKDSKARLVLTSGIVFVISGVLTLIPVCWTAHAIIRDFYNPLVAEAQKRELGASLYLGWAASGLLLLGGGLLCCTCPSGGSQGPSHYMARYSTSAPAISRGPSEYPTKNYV
Assay: FACS, AF647-labelled mAb, OVCA429 cells
Overview of recorded pEC50 for various binders
Expect pEC50 as a plain number equal to -log10 of the molar concentration.

Illustrative cases are given below, each with its answer.
AB2 (antibody, V domains shown, Labelled with Alexa Fluor 647 NHS ester for FACS) VH: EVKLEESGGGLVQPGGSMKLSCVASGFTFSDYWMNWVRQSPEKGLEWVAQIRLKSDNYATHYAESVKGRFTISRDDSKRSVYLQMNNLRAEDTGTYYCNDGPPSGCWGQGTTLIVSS VL: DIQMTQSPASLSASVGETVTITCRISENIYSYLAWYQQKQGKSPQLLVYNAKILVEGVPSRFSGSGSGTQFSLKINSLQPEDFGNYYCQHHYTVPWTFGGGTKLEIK; 6.04
AB3 (antibody, V domains shown, Labelled with Alexa Fluor 647 for FACS and with Texas Red-X in the internalization assay) VH: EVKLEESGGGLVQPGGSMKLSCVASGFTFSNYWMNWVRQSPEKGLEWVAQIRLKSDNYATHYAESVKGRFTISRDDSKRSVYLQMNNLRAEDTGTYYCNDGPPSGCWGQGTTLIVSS VL: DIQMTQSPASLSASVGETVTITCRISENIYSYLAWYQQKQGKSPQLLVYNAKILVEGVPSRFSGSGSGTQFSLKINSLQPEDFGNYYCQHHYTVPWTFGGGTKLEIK; 5.96

// next entry
Challenge: For the binder shown here, AB6 (antibody, V domains shown, Labelled with Alexa Fluor 647 NHS ester for FACS) VH: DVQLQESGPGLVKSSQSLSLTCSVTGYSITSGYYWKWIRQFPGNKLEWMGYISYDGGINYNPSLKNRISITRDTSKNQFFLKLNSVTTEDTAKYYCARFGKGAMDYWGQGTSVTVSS VL: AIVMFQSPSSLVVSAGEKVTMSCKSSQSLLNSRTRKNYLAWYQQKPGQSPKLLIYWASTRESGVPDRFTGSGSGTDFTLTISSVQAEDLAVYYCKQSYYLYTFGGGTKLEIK , give the reported pEC50.
Response given: 6.40
